Source listed as PubChem BioAssay AID1259422.

Assay: TEAD-YAP interaction inhibition, primary screen, TEAD-YAP interaction inhibitor project, luminescence, HEK-TIYL cells (AID 1259422);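 further: 0% = median of test compound wells and 100% = reference inhibitor wells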
Details: TEAD-Gal4/YAP UAS-luciferase luminescence, at 9.12 µM, hits give high values
The campaign covered roughly 640,000 compounds. About 9,300 (1.5%) were called active. The full list was thinned out, with actives kept by preference.
property-measured: inhibition

INSERT INTO measurements (molecule, value) VALUES
  ('COC(=O)c1nnn(CC(=O)Nc2ccc3c(c2)OCCO3)c1C(=O)OC', '9.22% (inactive)'),
  ('O=C(NNc1ncc([N+](=O)[O-])cc1[N+](=O)[O-])c1ccncc1', '6.87% (inactive)'),
  ('COc1ccccc1NC(=O)C(=O)NCc1ccc(Cl)cc1', '1.06% (inactive)'),
  ('COc1ccc(CCNC(=O)CCS(=O)(=O)c2cccc3cccnc23)cc1OC', '10.6% (inactive)'),
  ('O=C(CCc1nnc(-c2ccccc2)o1)NCCc1ccccc1Cl', '-37.1% (inactive)'),
  ('O=C(CSc1nnc2ncccn12)N1CCCc2ccccc21', '-3.81% (inactive)'),
  ('C/C(=N\NC(=O)c1ccccc1I)c1ccc(O)cc1', '-8.63% (inactive)'),
  ('COc1ccc(/C=N/NC(=O)CN(C)c2ccccc2)cc1OC', '-17.2% (inactive)'),
  ('CCOC(=O)c1c(NC(=O)c2ccccc2)sc(C(=O)Nc2ccccc2OC)c1C', '0.4% (inactive)'),
  ('COc1ccc2nc(NC(=O)c3ccccc3OC)sc2c1', '5.95% (inactive)'),
  ('Cc1cc(C)cc(OCC(=O)Nc2sc3c(c2C(N)=O)CCCC3)c1', '-1.21% (inactive)'),
  ('Clc1ccccc1-c1cnn2c(N3CCOCC3)ccnc12', '16.7% (inactive)'),
  ('COc1cc(NS(=O)(=O)c2ccc3ccccc3c2)c2ncccc2c1', '38.5% (active)'),
  ('O=C(Cc1c(F)cccc1Cl)Nc1cc(C(=O)Nc2cccc(C(F)(F)F)c2)ccc1N1CC2CC(C1)c1cccc(=O)n1C2 (centres undefined)', '2.29% (inactive)');

----------
Assay: TEAD-YAP interaction inhibition, primary screen, TEAD-YAP interaction inhibitor project, luminescence, HEK-TIYL cells (AID 1259422);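 further: 0% = median of test compound wells and 100% = reference inhibitor wells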
Settings: TEAD-Gal4/YAP UAS-luciferase luminescence, at 9.12 µM
Hit rate of the full screen: of about 640,000 compounds, about 9,300 (1.5%) were called active. Cut-off read from the data, not from the text of the source: active = inhibition above about 32%; inactive = the rest. The entries come from a sample that favours actives as a whole.
Labels: active, inactive

INSERT INTO measurements (compound, category) VALUES
  ('COc1ccc(N2C(=O)CC(NNC(=O)c3ccccc3O)C2=O)cc1 (stereo not drawn)', 'inactive'),
  ('Cc1ccc(C(=O)COC(=O)c2ccc(-n3cnnn3)cc2)cc1', 'inactive'),
  ('COc1cccc(/C=C/C(=O)NCC(=O)O)c1OC', 'inactive'),
  ('Cc1noc(C)c1S(=O)(=O)N1CCCC(C(=O)Nc2cccc(Cl)c2C)C1 (stereo not drawn)', 'inactive'),
  ('COc1cc(NC(=O)c2sc3[nH]c(=O)c(C(=O)O)cc3c2N)c(OC)cc1Cl', 'inactive'),
  ('O=C(NCCc1ccsc1)c1ccccc1Cl', 'active'),
  ('COCCNC(=O)c1cc2nc(-c3cccs3)cc(C(F)(F)F)n2n1', 'inactive'),
  ('CCN=C1SC(CC(=O)Nc2ccccc2SC)C(=O)N1CC (stereo not drawn)', 'inactive'),
  ('CCN1C(=O)/C(=C\c2cc(C)n(-c3ccccc3)c2C)C(C(=O)OC)=C1C', 'active'),
  ('COc1ccc(Cl)cc1Nc1nc(N2CCOCC2)c2ccccc2n1', 'inactive'),
  ('CC(=O)N1CCC(N(C(=O)CSCCNC(=O)c2ccccc2Cl)C2CC2)CC1', 'inactive'),
  ('CC(C)NC(=O)Cn1nc2n(CC(=O)NC3CCCCC3C)c3ccccc3n2c1=O (stereo not drawn)', 'inactive'),
  ('Cc1cccc(CC(=O)Nc2cnn(-c3cccc(C(=O)N(C)Cc4ccon4)c3)c2)c1', 'inactive'),
  ('CCN1C(=O)S/C(=C/c2cc(C)n(-c3cccnc3)c2C)C1=O', 'active'),
  ('COc1cc(C#N)cc(Cl)c1OC(C)=O', 'inactive'),
  ('CCOC(=O)CC1NCC2c3ccccc3CCN2C1=O (stereo not drawn)', 'inactive'),
  ('CCOC(=O)CC(=O)CSc1nc2c(sc(=S)n2-c2ccc(Cl)c(C)c2)c(=O)n1-c1ccccc1OC', 'inactive'),
  ('CCc1ccccc1N1C(=O)NC(=O)/C(=C\c2cc(C)n(-c3cccnc3)c2C)C1=O', 'inactive'),
  ('COc1ccc(-c2cnnc(N(C)CCC3CCOCC3)n2)cc1', 'inactive'),
  ('Nc1c(C(=O)OCC(=O)NCc2ccc3c(c2)OCO3)[nH]c(=O)[nH]c1=O', 'inactive'),
  ('Cc1c(C(=O)N2CCN(c3ccc(F)cc3)CC2)sc2ncnc(N(C)c3ccccc3)c12', 'inactive'),
  ('Cc1ccc(N=C2NC(=O)/C(=C\c3ccc(-c4ccccc4[N+](=O)[O-])o3)S2)c(C)c1', 'inactive'),
  ('Cc1ccccc1-n1c(SCC(=O)c2c[nH]c3ccccc23)nnc1-c1cccnc1', 'active');

----------
This listing pairs compounds with measured inhibition.
Assay: TEAD-YAP interaction inhibition, primary screen, TEAD-YAP interaction inhibitor project, luminescence, HEK-TIYL cells (AID 1259422);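 further: 0% = median of test compound wells and 100% = reference inhibitor wells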
Conditions: TEAD-Gal4/YAP UAS-luciferase luminescence, at 9.12 µM, hits give high values
Among all 640,000 compounds or so, about 9,300 (1.5%) were called active. This excerpt belongs to a sample that is enriched for actives.
property-measured: inhibition

INSERT INTO measurements (compound, property_measured, value) VALUES
  ('Cc1cccc(-c2nc(-c3ccc(Cl)cc3)no2)c1', 'inhibition', '-40.1% (inactive)'),
  ('Cn1cc(-c2cc(Nc3ccc(-n4cnc(N5CCC(O)CC5)n4)cc3)ncc2Cl)cn1', 'inhibition', '0.35% (inactive)'),
  ('CN1N=C(C(F)(F)F)/C(=N/OC(=O)c2ccc(Cl)cc2Cl)C1=O', 'inhibition', '6.23% (inactive)'),
  ('Cc1ccc2nc3c(cc(C#N)c(=O)n3-c3cccc(Cl)c3)c(=O)n2c1', 'inhibition', '-0.14% (inactive)'),
  ('COc1ccc(NC(=O)C2Cc3ccccc3CN2S(=O)(=O)c2ccc(C)cc2)cc1 (centres undefined)', 'inhibition', '12.4% (inactive)'),
  ('O=C1NC2(CCN(C(=O)c3cccc4cccnc34)CC2)Nc2ccc(Cl)cc21', 'inhibition', '77.2% (active)'),
  ('Cc1cccc2c1CC(=O)NC21CCN(Cc2ccc3ccccc3c2)CC1', 'inhibition', '7.07% (inactive)'),
  ('Oc1ccc(CCNc2nc(Nc3ccc(N4CCOCC4)cc3)nc3c2ncn3-c2ccccc2)cc1', 'inhibition', '9.04% (inactive)'),
  ('CCCCC(=O)NC(c1ccc(OC)c(OC)c1)c1ccc2cccnc2c1O (centres undefined)', 'inhibition', '89.2% (active)'),
  ('CCCCC(=O)NC(c1ccc(OC)cc1)c1cc([N+](=O)[O-])c2cccnc2c1O (centres undefined)', 'inhibition', '7.56% (inactive)'),
  ('Cn1cc(-c2nc(Nc3ccc(-n4cnc(N5CCC(O)CC5)n4)cc3)ncc2Br)cn1', 'inhibition', '85.4% (active)'),
  ('CN(c1ncnc2c1cnn2-c1ccc(Cl)cc1)C1CCCCC1', 'inhibition', '63.9% (active)'),
  ('COc1cc(/C=N/NC(=O)c2cccs2)cc(OC)c1OC', 'inhibition', '-55.4% (inactive)'),
  ('COc1cccc(-c2cnc3c(Nc4ccc(C(N)=O)cc4)nccn23)c1', 'inhibition', '-21.2% (inactive)'),
  ('COc1cc(C(=O)N/N=C/c2cccs2)cc(OC)c1OC', 'inhibition', '61.3% (active)'),
  ('COC(=O)C(NNc1ccccc1C)(NC(=O)c1ccc(Cl)cc1)C(F)(F)F (centres undefined)', 'inhibition', '-4.69% (inactive)'),
  ('Cc1ccc(C2CC(=O)C3=C(C2)Nc2ccccc2N(C(=O)C(F)(F)F)C3c2cccc(Br)c2)cc1 (centres undefined)', 'inhibition', '7.36% (inactive)'),
  ('O=C1C(=O)N(CCCn2ccnc2)C(c2ccc(Cl)cc2)/C1=C(/O)c1ccccc1 (centres undefined)', 'inhibition', '7.39% (inactive)'),
  ('COC(=O)N/N=C\c1ccc(-c2cccc(Cl)c2)o1', 'inhibition', '-22.7% (inactive)'),
  ('COc1ccc(CCNc2nc(Nc3ccc(-n4ccnc4)cc3)nc3c2ncn3-c2ccsc2)cc1', 'inhibition', '65.1% (active)'),
  ('CCCCOc1ccc(NS(=O)(=O)c2cc(F)ccc2OC)cc1', 'inhibition', '1.6% (inactive)'),
  ('COc1ccc(/C(C)=N/Nc2nc3ccccc3[nH]2)cc1', 'inhibition', '-5.09% (inactive)'),
  ('c1ccc2c(Nc3nc(NCCN4CCOCC4)c4ncn(-c5ccsc5)c4n3)nccc2c1', 'inhibition', '19.8% (inactive)'),
  ('CCCCOC(=O)C(C)Oc1ccc2c(=O)c(-c3ccc(Cl)cc3)coc2c1 (centres undefined)', 'inhibition', '-32.8% (inactive)');
